Just for reference, patent US12227482B2 is where these values come from.

- Test system: A549 cells
- Experiment: Cell viability (CellTiter-Glo ATP content) in A549 cells
- Type: cell-based
- Applied conditions: Homo sapiens, A549, 72 h, 72 hours treatment, cell survival by CellTiter-Glo, 2% fetal bovine serum
Items are presented alongside their recorded IC50.

{"Molecule": "COCCNC(=O)C1(C)C(c2ccsc2)C(c2ccc(F)cc2F)=NN1c1ccc(F)cc1F (stereo not shown)", "IC50": "< 0.25 µM"}
{"Molecule": "CCCCC1C(c2ccc(F)cc2)=NN(c2ccc(F)c(Cl)c2)C1(C)C(=O)NCCCCC(C)(C)O (stereo not shown)", "IC50": "> 2 µM"}
{"Molecule": "CCCCC1C(c2ccc(F)cc2)=NN(c2ccccc2)C1(C)C(=O)NCCCC(C)(C)CO (stereo not shown)", "IC50": "0.5 to 1 µM"}
{"Molecule": "COC(=O)CNC(=O)C1(C)C(c2ccc(F)cc2F)=NN(c2ccc(F)cc2F)C1c1ccc(Cl)o1 (stereo not shown)", "IC50": "> 2 µM"}
{"Molecule": "CC1(C(=O)NCC(=O)NCCS(C)(=O)=O)C(c2cccs2)C(c2ccc(F)cc2)=NN1c1ccc(F)cc1F (stereo not shown)", "IC50": "> 2 µM"}
{"Molecule": "CCCCC1C(c2ccc(S(C)(=O)=O)cc2)=NN(c2ccc(F)cc2F)C1(C)C(=O)NCCCC(C)(C)CO (stereo not shown)", "IC50": "> 2 µM"}
{"Molecule": "CCCCC1C(c2ccc(F)cc2)=NN(c2ccccc2)C1(C)C(=O)NCc1ccc(Cl)c(Cl)c1 (stereo not shown)", "IC50": "> 2 µM"}
{"Molecule": "CCCCC1C(c2ccc(F)cc2)=NN(c2ccccc2)C1(C)C(=O)NC(C)c1ccc(S(C)(=O)=O)cc1 (stereo not shown)", "IC50": "> 2 µM"}
{"Molecule": "COCCNC(=O)C1(C)C(c2ccc(Cl)s2)C(c2ccc(F)cc2)=NN1c1ccc(F)cc1F (stereo not shown)", "IC50": "1 to 2 µM"}
{"Molecule": "CC1(C(=O)NCC(=O)NC2COC2)C(c2cccs2)C(c2ccc(F)cc2)=NN1c1ccc(F)cc1F (stereo not shown)", "IC50": "> 2 µM"}
{"Molecule": "CCCCC1C(c2ccc(F)cc2)=NN(c2ccc(Cl)cc2F)C1(C)C(=O)NCCCC(C)(C)CO (stereo not shown)", "IC50": "0.5 to 1 µM"}
{"Molecule": "CNC(=O)CNC(=O)C1(C)C(c2cccs2)C(c2ccc(F)cc2)=NN1c1ccc(F)cc1F (stereo not shown)", "IC50": "> 2 µM"}
{"Molecule": "CCCCC1C(c2ccc(F)cc2)=NN(c2ccccc2)C1(C)C(=O)NCc1ccccc1OC (stereo not shown)", "IC50": "> 2 µM"}
{"Molecule": "Cn1cccc1C1C(c2ccc(F)cc2)=NN(c2ccc(F)cc2F)C1(C)C(=O)NCCCC(C)(C)CO (stereo not shown)", "IC50": "> 2 µM"}
{"Molecule": "CCCCC1C(c2ccc(F)cc2)=NN(c2ccc(C)cc2)C1(C)C(=O)NCCCC(C)(C)CO (stereo not shown)", "IC50": "1 to 2 µM"}
{"Molecule": "COC(=O)CNC(=O)C1(C)C(c2cccs2)C(c2ccc(F)cc2)=NN1c1ccc(F)cc1F (stereo not shown)", "IC50": "0.5 to 1 µM"}
{"Molecule": "COC(=O)CNC(=O)C1(C)C(c2ccsc2)C(c2ccc(F)cc2F)=NN1c1ccc(F)cc1F (stereo not shown)", "IC50": "0.5 to 1 µM"}
{"Molecule": "CCCCC1C(c2ccc(F)cc2)=NN(c2ccccc2)C1(C)C(=O)NCCS(C)(=O)=O (stereo not shown)", "IC50": "> 2 µM"}
{"Molecule": "CC1(C(=O)NCCCN2CCOCC2)C(c2cccs2)C(c2ccc(F)cc2)=NN1c1ccc(F)cc1F (stereo not shown)", "IC50": "> 2 µM"}
{"Molecule": "CC1(C(=O)NCCN2CCOCC2)C(c2cccs2)C(c2ccc(F)cc2)=NN1c1ccc(F)cc1F (stereo not shown)", "IC50": "> 2 µM"}
{"Molecule": "CC(C)(CO)CCCNC(=O)C1(C)C(c2ccc(F)cc2F)=NN(c2ccc(F)cc2F)C1c1ccc(Cl)o1 (stereo not shown)", "IC50": "> 2 µM"}
{"Molecule": "CCCCC1C(c2ccc(F)cc2)=NN(c2ccccc2)C1(C)C(=O)N(CCO)Cc1ccccc1 (stereo not shown)", "IC50": "> 2 µM"}
{"Molecule": "CCCCC1C(c2ccc(F)cc2)=NN(c2ccc(F)cc2F)C1(C)C(=O)N(C)CCCOC (stereo not shown)", "IC50": "> 2 µM"}
{"Molecule": "COCCNC(=O)C1(C)C(c2cnn(C)c2)C(c2ccc(F)cc2)=NN1c1ccc(F)cc1F (stereo not shown)", "IC50": "> 2 µM"}
{"Molecule": "CCCCC1C(c2ccc(F)cc2)=NN(c2ccccc2)C1(C)C(=O)N(C)Cc1cc(OC)cc(OC)c1 (stereo not shown)", "IC50": "> 2 µM"}
{"Molecule": "CCCCC1C(c2ccc(F)cc2)=NN(c2ccccc2)C1(C)C(=O)NCc1ccc(CN2CCOCC2)cc1 (stereo not shown)", "IC50": "> 2 µM"}
{"Molecule": "CCCCC1C(c2ccc(F)cc2)=NN(c2ccc(F)cc2F)C1(C)C(=O)NCCOC (stereo not shown)", "IC50": "0.5 to 1 µM"}
{"Molecule": "COCCNC(=O)C1(C)C(c2ccco2)C(c2ccc(F)cc2)=NN1c1ccc(F)cc1F (stereo not shown)", "IC50": "< 0.25 µM"}
{"Molecule": "CCCCC1C(c2ccc(F)cc2)=NN(c2ccccc2)C1(C)C(=O)NCc1ccc(O)c(OC)c1 (stereo not shown)", "IC50": "> 2 µM"}
{"Molecule": "CCCCC1C(c2ccc(F)cc2)=NN(c2ccccc2)C1(C)C(=O)NCCCCCO (stereo not shown)", "IC50": "> 2 µM"}
{"Molecule": "CON(C)C(=O)CNC(=O)C1(C)C(c2cccs2)C(c2ccc(F)cc2)=NN1c1ccc(F)cc1F (stereo not shown)", "IC50": "> 2 µM"}
